Here, each record is paired with measured IC50 data.
# Tested on: human lung carcinoma SKMES
# test-method-notes: MTT growth inhibitory assay, SKMES
# Type: cell-based
# condition: Human Lung Carcinoma SKMES; read-out: IC50 growth inhibition, agent used separately
Structures can show the parent of a compound that is named as a salt.
Write the value in µg/mL as a bare number.

Some entries whose results are on file:
CN(C)c1ccc(NC(=O)Nc2nc3nn(C)cc3c3nc(-c4ccco4)nn23)cc1 [IL-11]	36.3
CCCn1cc2c(nc(NC(=O)Nc3ccc(OC)cc3)n3nc(-c4ccco4)nc23)n1 [MRE3008F20]	19
CCc1c2c(nc3ccc(OC(=O)N4CCC(N5CCCCC5)CC4)cc13)-c1cc3c(c(=O)n1C2)COC(=O)[C@]3(O)CC [irinotecan HCL, reference compound]	1.23
CC(=O)O[C@H]1C(=O)[C@@]2(C)[C@H]([C@H](OC(=O)c3ccccc3)[C@]3(O)C[C@H](OC(=O)[C@H](O)[C@@H](NC(=O)c4ccccc4)c4ccccc4)C(C)=C1C3(C)C)[C@]1(OC(C)=O)CO[C@@H]1C[C@@H]2O [paclitaxel]	0.0026

In the following, a different molecule is considered.
Requested read-out: IC50. Entry: CCN(CC)c1ccc(NC(=O)Nc2nc3nn(C)cc3c3nc(-c4ccco4)nn23)cc1 [IL-10]
5.9

====

# Test system: human lung carcinoma SKMES
# test-method-notes: MTT growth inhibitory assay, SKMES
# Format: cell-based
# condition: Human Lung Carcinoma SKMES; read-out: IC50 growth inhibition, agent used separately
Here, each record is paired with measured IC50 data.
Write the value in ng/mL as a bare number.

CC[C@]1(O)C[C@@H]2CN(CCc3c([nH]c4ccccc34)[C@@](C(=O)OC)(c3cc4c(cc3OC)N(C)[C@H]3[C@@](O)(C(=O)OC)[C@H](OC(C)=O)[C@]5(CC)C=CCN6CC[C@]43[C@@H]65)C2)C1 [vinblastine, reference compound]	1.9

Requested read-out: IC50. Entry: CC(=O)O[C@@]12CO[C@@H]1C[C@H](O)[C@@]1(C)C(=O)[C@H](O)C3=C(C)[C@@H](OC(=O)[C@H](O)[C@@H](NC(=O)OC(C)(C)C)c4ccccc4)C[C@@](O)([C@@H](OC(=O)c4ccccc4)[C@H]21)C3(C)C [docetaxel, reference compound]
0.84

====

# measured-on: rA2A adenosine receptor (Rattus norvegicus, UniProt P30543)
# Sequence (P30543 whole entry): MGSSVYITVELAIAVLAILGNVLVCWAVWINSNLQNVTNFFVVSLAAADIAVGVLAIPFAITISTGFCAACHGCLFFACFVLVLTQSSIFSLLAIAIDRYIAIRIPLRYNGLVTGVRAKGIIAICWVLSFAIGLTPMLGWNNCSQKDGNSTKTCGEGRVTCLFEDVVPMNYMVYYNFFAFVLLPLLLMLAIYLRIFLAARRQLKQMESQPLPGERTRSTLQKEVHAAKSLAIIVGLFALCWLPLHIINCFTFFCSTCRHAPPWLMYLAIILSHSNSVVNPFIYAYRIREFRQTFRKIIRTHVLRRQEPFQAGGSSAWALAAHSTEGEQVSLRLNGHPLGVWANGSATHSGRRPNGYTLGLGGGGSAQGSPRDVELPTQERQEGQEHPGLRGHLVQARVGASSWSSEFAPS
measured-property: Ki (µM)
Write the value in µM as a bare number.

Requested read-out: Ki. Entry: `CCN(CC)c1ccc(NC(=O)Nc2nc3nn(C)cc3c3nc(-c4ccco4)nn23)cc1`
0.523

====

# Test system: human colon carcinoma HT29 cell line
# test-method-notes: MTT growth inhibitory assay, HT29
# Assay type: cell-based
# condition: HT-29; Human Colon Carcinoma HT29; read-out: IC50 growth inhibition, agent used separately
Structures can show the parent of a compound that is named as a salt.
Lab note: compare IC50 with 10 mg/L, writing 1 if less and -1 if equal or more.

Worked set:
CC[C@]1(O)C[C@@H]2CN(CCc3c([nH]c4ccccc34)[C@@](C(=O)OC)(c3cc4c(cc3OC)N(C)[C@H]3[C@@](O)(C(=O)OC)[C@H](OC(C)=O)[C@]5(CC)C=CCN6CC[C@]43[C@@H]65)C2)C1 [vinblastine, reference compound]	1
CN(C)c1ccc(NC(=O)Nc2nc3nn(C)cc3c3nc(-c4ccco4)nn23)cc1	-1
CCc1c2c(nc3ccc(OC(=O)N4CCC(N5CCCCC5)CC4)cc13)-c1cc3c(c(=O)n1C2)COC(=O)[C@]3(O)CC [irinotecan HCL, reference compound]	1
CCCn1cc2c(nc(NC(=O)Nc3ccc(OC)cc3)n3nc(-c4ccco4)nc23)n1	-1
CC(=O)O[C@H]1C(=O)[C@@]2(C)[C@H]([C@H](OC(=O)c3ccccc3)[C@]3(O)C[C@H](OC(=O)[C@H](O)[C@@H](NC(=O)c4ccccc4)c4ccccc4)C(C)=C1C3(C)C)[C@]1(OC(C)=O)CO[C@@H]1C[C@@H]2O	1

Consider the additional compound presented here.
Determine if CC(=O)O[C@@]12CO[C@@H]1C[C@H](O)[C@@]1(C)C(=O)[C@H](O)C3=C(C)[C@@H](OC(=O)[C@H](O)[C@@H](NC(=O)OC(C)(C)C)c4ccccc4)C[C@@](O)([C@@H](OC(=O)c4ccccc4)[C@H]21)C3(C)C [docetaxel, reference compound] shows IC50 strictly lower than 10 mg/L.
1
